Assay target: human RXFP1 (Homo sapiens, UniProt Q9HBX9)
Construct: expressed in transfected cells
Experimental protocol: hRXFP1 HEK293 cAMP assay (HTRF)
Assay type: cell-based
Experimental parameters: HEK293 cells stably expressing human RXFP1, 30 min at room temperature
pEC50: −log10 of the molar value.
Use 7 as the dividing line for pEC50, with the line itself on the true (1) side and lower values as false (0).

>>> label_value("COc1ccc(CCCO)cc1C(=O)NC1C2CCC(/C2=C/C2CCCOC2)[C@@H]1C(=O)Nc1ccc(F)c(C(F)(F)F)c1 (single isomer, unassigned) [Example 170]")
"true (1)"
>>> label_value("COc1ccc(C2CCCC(NC(=O)C3CCOCC3)C2)cc1C(=O)N[C@@H]1C2CCC(/C2=C/C(F)(F)F)[C@@H]1C(=O)Nc1ccc(F)c(C(F)(F)F)c1 (single isomer, unassigned) [Example 48]")
"false (0)"
>>> label_value("COc1ccc(C2CC2C(=O)N2CCC(O)CC2)cc1C(=O)N[C@H]1[C@@H](C(=O)Nc2ccc(F)c(C(F)(F)F)c2)[C@H]2CC[C@@H]1/C2=C\\C(F)(F)F (single isomer, unassigned) [Example 326]")
"false (0)"

Continue with the compound presented below.
Prompt: State whether the measured pEC50 reaches 7, counting equality as reaching it, for COc1ccc(/C=C/C(=O)N(C)CCO)cc1C(=O)N[C@H]1[C@@H](C(=O)Nc2ccc(F)c(C(F)(F)F)c2)[C@H]2CC[C@@H]1/C2=C\C1CC1
Completion: true (1)

====

Here the recorded log10 EC50 is given for each entry.
Assay target: human RXFP1 (Homo sapiens)
Sequence (Q9HBX9 1-757): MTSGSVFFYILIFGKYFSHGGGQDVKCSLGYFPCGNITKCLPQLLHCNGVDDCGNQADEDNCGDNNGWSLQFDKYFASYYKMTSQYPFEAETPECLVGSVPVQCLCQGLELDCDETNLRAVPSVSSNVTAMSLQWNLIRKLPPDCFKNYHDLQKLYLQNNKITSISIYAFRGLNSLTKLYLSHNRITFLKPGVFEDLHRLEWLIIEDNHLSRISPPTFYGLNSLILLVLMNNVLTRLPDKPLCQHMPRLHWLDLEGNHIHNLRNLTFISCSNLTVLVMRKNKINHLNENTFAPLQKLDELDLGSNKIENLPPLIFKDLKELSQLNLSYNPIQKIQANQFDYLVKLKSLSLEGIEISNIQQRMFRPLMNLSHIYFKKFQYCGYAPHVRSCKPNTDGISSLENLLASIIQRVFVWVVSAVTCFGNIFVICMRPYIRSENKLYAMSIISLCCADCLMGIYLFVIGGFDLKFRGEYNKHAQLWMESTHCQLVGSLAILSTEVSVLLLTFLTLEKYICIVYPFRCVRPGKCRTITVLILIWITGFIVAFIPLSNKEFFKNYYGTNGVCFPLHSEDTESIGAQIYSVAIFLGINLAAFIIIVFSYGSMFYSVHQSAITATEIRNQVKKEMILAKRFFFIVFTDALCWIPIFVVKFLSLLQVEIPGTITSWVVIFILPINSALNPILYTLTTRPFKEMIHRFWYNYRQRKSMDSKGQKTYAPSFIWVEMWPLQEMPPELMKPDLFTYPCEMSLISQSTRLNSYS
Experimental protocol: hRXFP1 HEK293 cAMP assay (HTRF)
Experimental parameters: HEK293 cells stably expressing human RXFP1, 30 min at room temperature
Hi team, quick reminder: these entries are log10 of EC50 (nM).

>>> val("O=C(N[C@H]1[C@@H](C(=O)Nc2ccc(F)c(C(F)(F)F)c2)[C@H]2CC[C@@H]1/C2=C\\C(F)(F)F)c1cc(C#CCO)ccc1OCCO")
2.58

Prompt: Look up log10 EC50 for this compound: COc1ccc(COC[C@@H]2C[C@@H]2C(=O)O)cc1C(=O)N[C@H]1[C@@H](C(=O)Nc2ccc(F)c(C(F)(F)F)c2)[C@H]2CC[C@@H]1/C2=C\C1CC1
Completion: 1.45

Prompt: Look up log10 EC50 for this compound: COc1cc(COC2(CO)CC2)ccc1C(=O)N[C@H]1[C@@H](C(=O)Nc2ccc(F)c(C(F)(F)F)c2)[C@H]2CC[C@@H]1/C2=C\C1CC1
Completion: 1.11

Prompt: Look up log10 EC50 for this compound: COc1ccc(C2CCCC(OC(=O)Nc3ccccc3)C2)cc1C(=O)N[C@@H]1C2CCC(/C2=C/C(F)(F)F)[C@@H]1C(=O)Nc1ccc(F)c(C(F)(F)F)c1 (single isomer, unassigned) [Example 40]
Completion: 1.28
